Target: recombinant human ACC2 (Homo sapiens (Human), UniProt O00763)
Sequence (O00763 27-2458): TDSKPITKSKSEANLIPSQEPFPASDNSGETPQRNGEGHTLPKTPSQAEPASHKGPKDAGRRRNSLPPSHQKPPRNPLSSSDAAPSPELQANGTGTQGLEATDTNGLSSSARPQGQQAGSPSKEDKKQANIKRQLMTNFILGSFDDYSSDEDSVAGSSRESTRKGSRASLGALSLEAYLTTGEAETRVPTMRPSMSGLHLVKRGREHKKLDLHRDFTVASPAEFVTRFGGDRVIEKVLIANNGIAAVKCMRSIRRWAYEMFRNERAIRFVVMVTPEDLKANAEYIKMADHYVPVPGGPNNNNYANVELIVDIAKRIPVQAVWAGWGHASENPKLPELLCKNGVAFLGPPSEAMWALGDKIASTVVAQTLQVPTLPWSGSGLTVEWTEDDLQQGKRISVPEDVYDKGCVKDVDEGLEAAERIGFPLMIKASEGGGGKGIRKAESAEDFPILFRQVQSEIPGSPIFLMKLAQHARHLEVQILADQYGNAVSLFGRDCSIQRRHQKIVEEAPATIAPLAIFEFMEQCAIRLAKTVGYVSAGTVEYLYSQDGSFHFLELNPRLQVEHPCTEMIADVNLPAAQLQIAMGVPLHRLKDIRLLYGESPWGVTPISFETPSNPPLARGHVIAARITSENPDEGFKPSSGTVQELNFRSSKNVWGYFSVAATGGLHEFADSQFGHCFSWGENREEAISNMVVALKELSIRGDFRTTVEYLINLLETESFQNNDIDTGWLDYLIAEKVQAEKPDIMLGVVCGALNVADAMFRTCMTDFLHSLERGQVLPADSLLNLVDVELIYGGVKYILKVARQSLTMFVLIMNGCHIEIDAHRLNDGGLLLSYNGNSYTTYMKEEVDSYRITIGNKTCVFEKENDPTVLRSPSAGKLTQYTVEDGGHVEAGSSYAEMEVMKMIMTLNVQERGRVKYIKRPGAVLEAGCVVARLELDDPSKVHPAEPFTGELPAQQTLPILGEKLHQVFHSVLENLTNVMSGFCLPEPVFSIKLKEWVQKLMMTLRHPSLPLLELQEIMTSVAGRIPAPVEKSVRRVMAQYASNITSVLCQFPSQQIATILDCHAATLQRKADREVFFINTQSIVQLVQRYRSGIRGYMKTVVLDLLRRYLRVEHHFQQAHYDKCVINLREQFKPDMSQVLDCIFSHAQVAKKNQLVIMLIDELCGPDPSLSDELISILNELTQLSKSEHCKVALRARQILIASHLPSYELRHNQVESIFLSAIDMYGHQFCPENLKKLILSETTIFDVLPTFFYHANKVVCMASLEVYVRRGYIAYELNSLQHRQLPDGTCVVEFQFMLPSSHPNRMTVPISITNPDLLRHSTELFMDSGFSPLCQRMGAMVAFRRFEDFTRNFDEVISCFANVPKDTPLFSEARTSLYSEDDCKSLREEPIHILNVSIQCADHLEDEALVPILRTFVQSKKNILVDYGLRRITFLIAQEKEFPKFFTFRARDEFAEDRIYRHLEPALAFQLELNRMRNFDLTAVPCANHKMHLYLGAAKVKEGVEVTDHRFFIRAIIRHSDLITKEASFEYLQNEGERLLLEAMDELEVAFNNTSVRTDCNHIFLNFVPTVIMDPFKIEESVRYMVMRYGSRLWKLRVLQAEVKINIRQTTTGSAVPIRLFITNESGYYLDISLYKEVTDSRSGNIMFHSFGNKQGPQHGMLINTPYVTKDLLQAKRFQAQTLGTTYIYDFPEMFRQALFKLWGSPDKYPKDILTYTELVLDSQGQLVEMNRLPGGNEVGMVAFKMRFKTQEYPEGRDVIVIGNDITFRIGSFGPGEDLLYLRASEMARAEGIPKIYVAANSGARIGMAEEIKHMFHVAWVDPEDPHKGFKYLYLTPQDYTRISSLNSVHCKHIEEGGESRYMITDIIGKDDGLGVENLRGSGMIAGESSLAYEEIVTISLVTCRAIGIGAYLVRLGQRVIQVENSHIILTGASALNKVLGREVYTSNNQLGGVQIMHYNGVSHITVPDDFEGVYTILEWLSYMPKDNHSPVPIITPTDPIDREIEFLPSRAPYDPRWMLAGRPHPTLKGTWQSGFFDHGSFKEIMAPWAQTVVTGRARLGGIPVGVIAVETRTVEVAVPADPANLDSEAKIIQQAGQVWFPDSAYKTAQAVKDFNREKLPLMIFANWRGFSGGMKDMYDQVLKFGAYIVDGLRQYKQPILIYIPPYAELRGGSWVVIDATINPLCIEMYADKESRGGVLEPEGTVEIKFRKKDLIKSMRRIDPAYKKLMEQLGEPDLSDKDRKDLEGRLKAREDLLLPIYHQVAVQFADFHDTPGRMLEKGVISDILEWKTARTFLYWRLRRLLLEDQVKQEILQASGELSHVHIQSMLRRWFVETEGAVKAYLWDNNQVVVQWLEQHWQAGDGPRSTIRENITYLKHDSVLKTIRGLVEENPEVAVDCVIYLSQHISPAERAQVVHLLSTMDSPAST
Assay: Measurement of inhibitory activity on human ACC2 (MALDI-TOF MS, acetyl CoA to malonyl CoA conversion)
Format: biochemical
Conditions: Tables 155-159
recorded endpoint: log10 of IC50 (log10 of the value in nM)
Quick note: numbers are log10 of IC50, with nM as the unit.

Below: 6 molecules and their reported log10 of IC50.
>>> observed_result("CC(=O)N[C@@H](C)CC[C@H]1OC[C@H](Oc2nc3cnc(OCC(F)F)c(Cl)c3n2C)C[C@@H]1C [Compound I-644]")
1.41
>>> observed_result("CC(=O)N[C@@H](C)CO[C@H]1C[C@H](COc2nccc(N3C4CCC3CC4)c2Cl)C1 [Compound I-332]")
1.75
>>> observed_result("CC(=O)N[C@@H](C)CO[C@H]1C[C@H](COc2ncnc3c2c(F)cn3CC2CC2)C1 [Compound I-450]")
1.15
>>> observed_result("CCSc1ccc2nc(O[C@H]3CC[C@H](OC[C@H](C)NC(C)=O)CC3)n(C)c2c1 [Compound I-577]")
1.79
>>> observed_result("C[C@@H](CO[C@H]1CC[C@H](Oc2nc3c(F)cc(OCC(F)F)c(F)c3n2C)CC1)NC(=O)C(F)F [Compound I-614]")
1.04
>>> observed_result("CC(=O)N[C@@H](C)CO[C@H]1CC[C@H](Oc2cc(C)c3nc(OCC4CC4)n(C)c3n2)CC1 [Compound I-509]")
2.35

# molecule CC(=O)N[C@@H](C)CO[C@H]1C[C@H](COc2ccc3nc(OCC(C)(C)C#N)sc3n2)C1 [Compound I-302] ; its log10 of IC50 = 1.72

----------
Target: recombinant human ACC2 (Homo sapiens (Human))
Test: Measurement of inhibitory activity on human ACC2 (MALDI-TOF MS, acetyl CoA to malonyl CoA conversion)
Format: biochemical
Conditions: Tables 155-159
# reported pIC50; entries follow
Convention used: pIC50 is expressed as -log10 of the molar concentration.

Below: 10 compounds and their reported pIC50.
>>> observed_result("CC(=O)N[C@@H](C)CO[C@H]1CC[C@H](Oc2nc3c(cc2F)nc(OC2CC(F)(F)C2)n3C)CC1 [Compound I-518]")
7.89
>>> observed_result("COc1c(-c2ccc(F)cc2)ccnc1OC[C@H]1C[C@H](OC[C@H](C)NC(C)=O)C1 [Compound I-379]")
6.59
>>> observed_result("C[C@@H](CO[C@H]1CC[C@H](Oc2ncc(-c3ncc(F)cn3)cc2F)CC1)NC(N)=O [Compound I-538]")
7.15
>>> observed_result("CC(=O)N[C@@H](C)CO[C@H]1C[C@](F)(COc2ccc3nc(C(C)(F)F)sc3c2Cl)C1 [Compound I-137]")
6.39
>>> observed_result("CC(=O)N[C@@H](C)CO[C@H]1CC[C@H](Oc2nc3c(C)cc(OCC(F)F)cc3n2C)CC1 [Compound I-709]")
6.88
>>> observed_result("CC(=O)N[C@@H](C)CO[C@H]1C[C@H](COc2nccc(-c3ccc(F)cc3)c2C#N)C1 [Compound I-319]")
6.55
>>> observed_result("CCOc1cccc(COc2ncnc(OC[C@H]3C[C@H](OC[C@H](C)NC(C)=O)C3)c2Cl)c1 [Compound I-408]")
6.33
>>> observed_result("CC(=O)N[C@@H](C)CO[C@H]1C[C@H](COc2nccc(N3CC4(CCC4)C3)c2Cl)C1 [Compound I-337]")
8.15
>>> observed_result("CC(=O)N[C@@H](C)CO[C@H]1C[C@H](COc2ncnc(NCc3cccc(C#N)c3)c2Cl)C1 [Compound I-343]")
6.93
>>> observed_result("CCOc1nc2cnc(O[C@H]3CC[C@H](OC[C@H](C)NC(C)=O)CC3)cc2s1 [Compound I-179]")
7.55

API: the following record is the query input.
# compound CCOc1nc2ccc(OC[C@]3(F)C[C@@H](OC[C@H](C)NC(C)=O)C3)nc2s1 [Compound I-163] ; its pIC50 = 7.41

----------
Molecular target: recombinant human ACC2 (Homo sapiens (Human), UniProt O00763)
Assay: Measurement of inhibitory activity on human ACC2 (MALDI-TOF MS, acetyl CoA to malonyl CoA conversion)
Type: biochemical
Conditions: Tables 155-159
pIC50: −log10 of the molar value.
pIC50 vs 8: at or above is class 1, below is class 0.

>>> cat("CC(=O)N[C@@H](C)CO[C@H]1C[C@H](COc2ccc3nc(OC4CC(F)(F)C4)n(C)c3n2)C1")
"class 0"
>>> cat("CC(=O)N[C@@H](C)CO[C@H]1C[C@H](COc2ncnc(OCc3ccc(F)cc3)c2F)C1")
"class 1"

Now let's try a different one.
Exercise: Determine whether this compound has pIC50 no lower than 8: CC(=O)N[C@@H](C)CO[C@H]1CC[C@H](Oc2nc3c(F)cc(Br)cc3n2C)CC1
Key: class 0

----------
# reported IC50; entries follow
Molecular target: recombinant human ACC2 (Homo sapiens (Human))
Test: Measurement of inhibitory activity on human ACC2 (MALDI-TOF MS, acetyl CoA to malonyl CoA conversion)
Assay type: biochemical
Conditions: Tables 155-159
Answer in nM, number only, no unit symbol.

Below: 6 molecules and their reported IC50.
>>> observed_result("CCOc1cc2c(nc(O[C@H]3CC[C@H](OC[C@H](C)NC(C)=O)CC3)n2C)c(F)c1Cl")
85
>>> observed_result("COc1cc(-c2ncc(F)cn2)cnc1O[C@H]1CC[C@H](OC[C@H](C)NC(C)=O)CC1")
158
>>> observed_result("CC(=O)N[C@@H](C)CO[C@H]1CC[C@H](Oc2nc3ccc(Oc4ccccn4)cc3n2C)CC1")
584
>>> observed_result("CC(=O)N[C@@H](C)CO[C@H]1C[C@H](Oc2nccc3c(OCC4CC4)nccc23)C1")
35
>>> observed_result("CC(=O)N[C@@H](C)CO[C@H]1C[C@H](COc2ncnc(NC(=O)c3ccccc3)c2Cl)C1")
109
>>> observed_result("CC(=O)N[C@@H](C)CC[C@H]1CC[C@H](Oc2ncc(-c3ncc(C(F)(F)F)cn3)cc2F)CC1")
14

The observed IC50 for CC(=O)N[C@@H](C)CO[C@H]1CC[C@H](Oc2ncc(-c3ncc(C(C)C)cn3)cc2F)CC1 when tested with recombinant human ACC2 (Homo sapiens (Human)) stands at 172

----------
Target: recombinant human ACC2 (Homo sapiens (Human))
Assay: Measurement of inhibitory activity on human ACC2 (MALDI-TOF MS, acetyl CoA to malonyl CoA conversion)
Assay type: biochemical
Conditions: Tables 155-159
recorded endpoint: IC50 (nM)
Answer in nM, number only, no unit symbol.

# molecule CC(=O)N[C@@H](C)CO[C@H]1C[C@](F)(COc2ccc3nc(OCC(F)F)sc3n2)C1 ; its IC50 = 42

# molecule CC(=O)N[C@@H](C)CO[C@H]1C[C@H](COc2ccc3nc(Oc4ccc(F)cn4)sc3n2)C1 ; its IC50 = 242

# molecule CC(=O)N[C@@H](C)CO[C@H]1CC[C@H](Oc2nc3ccc(Br)cc3n2C)CC1 ; its IC50 = 105

----------
Biological target: recombinant human ACC2 (Homo sapiens (Human))
Assay: Measurement of inhibitory activity on human ACC2 (MALDI-TOF MS, acetyl CoA to malonyl CoA conversion)
Format: biochemical
Details: Tables 155-159
recorded endpoint: IC50
Reply with the number and its unit after it.

>>> observed_result("CC(=O)N[C@@H](C)CO[C@H]1CC[C@H](Oc2ncc(-c3ncc(Cl)cn3)cc2F)CC1 [Compound I-526]")
"13 nM"

# molecule CC(=O)N[C@@H](C)CC[C@H]1CC[C@H](Oc2nc3cnc(OCC(F)F)c(Cl)c3n2C)CO1 [Compound I-657] ; its IC50 = 14 nM

# molecule CC(=O)N[C@@H](C)CO[C@H]1C[C@H](COc2nccc3c2cnn3CC2CCC2)C1 [Compound I-428] ; its IC50 = 53 nM

# molecule CC(=O)N[C@@H](C)CO[C@H]1CC[C@H](Oc2nc3c(Cl)nc(OC4CC4)c(F)c3n2C)CC1 [Compound I-711] ; its IC50 = 7 nM

# molecule CCOc1nc2cc(Cl)c(OC[C@H]3C[C@H](OC[C@H](C)NC(C)=O)C3)nc2s1 [Compound I-212] ; its IC50 = 17 nM

# molecule CCOc1cc(F)c2nc(O[C@H]3CC[C@H](OC[C@H](C)NC(C)=O)CC3)n(C)c2c1Cl [Compound I-740] ; its IC50 = 3 nM

# molecule CC(=O)N[C@@H](C)CC[C@H]1CC[C@H](Oc2ncc(-c3ncc(Cl)cn3)cc2F)CC1 [Compound I-544] ; its IC50 = 4 nM

----------
Biological target: recombinant human ACC2 (Homo sapiens (Human), UniProt O00763)
Assay: Measurement of inhibitory activity on human ACC2 (MALDI-TOF MS, acetyl CoA to malonyl CoA conversion)
Type: biochemical
Conditions: Tables 155-159
# reported IC50; entries follow
Answer in nM, number only, no unit symbol.

Below: 5 molecules and their reported IC50.
>>> observed_result("CC(=O)N[C@@H](C)[C@@H](C)O[C@H]1CC[C@H](Oc2nc3cnc(OCC(F)F)c(Cl)c3n2C)CC1")
260
>>> observed_result("CC(=O)N[C@@H](C)CO[C@H]1C[C@H](COc2ncnc(NCc3ccc(Cl)cc3)c2Cl)C1")
13
>>> observed_result("CCOc1nc2cc(F)c(OC[C@]3(F)C[C@@H](OC[C@H](C)NC(C)=O)C3)nc2s1")
39
>>> observed_result("CC(=O)N[C@@H](C)CO[C@H]1C[C@H](COc2ccc3nc(N4CC5(CCC5)C4)sc3n2)C1")
17
>>> observed_result("CC(=O)N[C@@H](C)CO[C@H]1CC[C@H](Oc2nc3ccc(OCC4CC4)cc3s2)CC1")
21

# molecule CC(=O)N[C@@H](C)CO[C@H]1CC[C@H](Oc2ccc3nc(N4CCOCC4)sc3c2F)CC1 ; its IC50 = 42

# molecule CC(=O)N[C@@H](C)CO[C@H]1CC[C@H](Oc2nc3ccc(Oc4ccncc4)cc3n2C)CC1 ; its IC50 = 383

src = patent US10150728B2
